biological target: Myeloperoxidase (Homo sapiens); assay: Inhibition of chlorinating activity of recombinant myeloperoxidase at 4 uM by taurine assay
measureName: inhibition (%)

                            substancesmiles  resultnumber
0         O=C(O)c1ccccc1Nc1cccc(C(F)(F)F)c1            64
1      O=C(O)c1cc(F)ccc1Nc1cccc(C(F)(F)F)c1            76
2     O=C(O)c1cc(Cl)ccc1Nc1cccc(C(F)(F)F)c1            74
3  CC(=O)Nc1ccc(C(=O)O)c(Nc2cccc(C(F)(F)F)c2)c1            42
4  O=C(Nc1ccc(C(=O)O)c(Nc2cccc(C(F)(F)F)c2)c1)c1ccccc1            35
5  O=C(CCCO)Nc1ccc(C(=O)O)c(Nc2cccc(C(F)(F)F)c2)c1            20
6  NCCCC(=O)Nc1ccc(C(=O)O)c(Nc2cccc(C(F)(F)F)c2)c1            49
7  O=C(O)c1ccc([N+](=O)[O-])cc1Nc1cccc(C(F)(F)F)c1            55
8  O=C(O)/C=C/C(=O)Nc1ccc(C(=O)O)c(Nc2cccc(C(F)(F)F)c2)c1           0.3
9     O=C(O)c1cc(Br)ccc1Nc1cccc(C(F)(F)F)c1            79

----------
Target: Myeloperoxidase (Homo sapiens) (UniProt P05164)
Sequence (whole entry): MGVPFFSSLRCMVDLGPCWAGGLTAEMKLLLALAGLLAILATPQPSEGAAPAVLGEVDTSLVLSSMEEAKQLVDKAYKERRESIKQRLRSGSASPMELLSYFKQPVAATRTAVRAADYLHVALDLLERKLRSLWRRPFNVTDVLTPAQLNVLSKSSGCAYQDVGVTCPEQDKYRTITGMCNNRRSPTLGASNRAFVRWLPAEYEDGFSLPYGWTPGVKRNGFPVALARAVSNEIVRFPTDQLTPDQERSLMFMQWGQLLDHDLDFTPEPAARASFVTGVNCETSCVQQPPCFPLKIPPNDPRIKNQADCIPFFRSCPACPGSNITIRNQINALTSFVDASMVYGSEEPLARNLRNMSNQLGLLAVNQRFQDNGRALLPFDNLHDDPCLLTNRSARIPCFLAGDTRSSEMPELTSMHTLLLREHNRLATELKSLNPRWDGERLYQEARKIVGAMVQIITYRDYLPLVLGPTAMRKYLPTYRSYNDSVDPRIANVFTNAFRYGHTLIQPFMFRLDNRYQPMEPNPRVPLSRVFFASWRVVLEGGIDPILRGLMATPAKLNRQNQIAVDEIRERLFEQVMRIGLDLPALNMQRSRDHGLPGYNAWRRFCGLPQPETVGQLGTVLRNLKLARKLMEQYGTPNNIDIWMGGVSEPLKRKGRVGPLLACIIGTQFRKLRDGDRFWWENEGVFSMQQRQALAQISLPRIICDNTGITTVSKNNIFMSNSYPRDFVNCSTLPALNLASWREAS
Assay: Inhibition of chlorinating activity of recombinant myeloperoxidase at 2 uM by taurine assay
Below is a list of entries, each paired with its recorded inhibition value.
measureName: inhibition (%)

>>> df
                            substancesmiles  measurename  units  resultnumber
0     O=C(O)c1cc(Br)ccc1Nc1cccc(C(F)(F)F)c1   inhibition      %            65
1     O=C(O)c1cc(Cl)ccc1Nc1cccc(C(F)(F)F)c1   inhibition      %            57
2         O=C(O)c1ccccc1Nc1cccc(C(F)(F)F)c1   inhibition      %            52
3  NCCCC(=O)Nc1ccc(C(=O)O)c(Nc2cccc(C(F)(F)F)c2)c1   inhibition      %            35
4  O=C(CCCO)Nc1ccc(C(=O)O)c(Nc2cccc(C(F)(F)F)c2)c1   inhibition      %          12.2
5      O=C(O)c1cc(F)ccc1Nc1cccc(C(F)(F)F)c1   inhibition      %            63
6  O=C(O)c1ccc([N+](=O)[O-])cc1Nc1cccc(C(F)(F)F)c1   inhibition      %            43
7  O=C(O)/C=C/C(=O)Nc1ccc(C(=O)O)c(Nc2cccc(C(F)(F)F)c2)c1   inhibition      %           0.1
8  O=C(Nc1ccc(C(=O)O)c(Nc2cccc(C(F)(F)F)c2)c1)c1ccccc1   inhibition      %            25
9  CC(=O)Nc1ccc(C(=O)O)c(Nc2cccc(C(F)(F)F)c2)c1   inhibition      %            33
